- System: Botrytis cinerea
- Assay Info: Direct protectant activity against broad bean grey mould (BCB)
- Type: in vivo
- Experimental Setup: direct protectant foliar spray, 600 ppm, 4 days
Observable: disease control rating BCB

Compound: CCCN(C(CC)CC)C1COC2(CCC(C(C)(C)C)CC2)C1 (stereo not drawn)
Assayed System: Botrytis cinerea
Observable: disease control rating BCB
Reported Measurement: 0 (less than 50% disease control)

Compound: CC(C)(C)C1CCC2(CC1)CC(O)(CNC1CCCCC1)CO2 (single isomer, unassigned)
Assayed System: Botrytis cinerea
Observable: disease control rating BCB
Reported Measurement: 2 (greater than 80% disease control)

Compound: CC(C)CNC1COC2(CCC(C(C)(C)C3CCCCC3)CC2)C1 (stereo not drawn)
Assayed System: Botrytis cinerea
Observable: disease control rating BCB
Reported Measurement: 0 (less than 50% disease control)

Compound: c1ccc(C2CCC3(CC2)CC(NC2CCCCC2)CO3)cc1 (stereo not drawn)
Assayed System: Botrytis cinerea
Observable: disease control rating BCB
Reported Measurement: 2 (greater than 80% disease control)

Compound: CC(C)(C)C1CCC2(CC1)CC(NC1CCC3CCCCC3C1)CO2 (stereo not drawn) [Compound 98]
Assayed System: Botrytis cinerea
Observable: disease control rating BCB
Reported Measurement: 2 (greater than 80% disease control)

Compound: CCCCNC1COC2(CCC(C(C)(C)C)CC2)C1 (stereo not drawn)
Assayed System: Botrytis cinerea
Observable: disease control rating BCB
Reported Measurement: 2 (greater than 80% disease control)

Compound: CCCCCCCCNCC1COC2(CCC(C(C)(C)C)CC2)C1 (stereo not drawn)
Assayed System: Botrytis cinerea
Observable: disease control rating BCB
Reported Measurement: 0 (less than 50% disease control)

Compound: CC(C)(C)C1CCC2(CC1)CC(NC1CC1)CO2 (stereo not drawn)
Assayed System: Botrytis cinerea
Observable: disease control rating BCB
Reported Measurement: 0 (less than 50% disease control)

Compound: CCCCCCCCCCCCCCCCCCNC1COC2(CCC(C(C)(C)C)CC2)C1 (stereo not drawn)
Assayed System: Botrytis cinerea
Observable: disease control rating BCB
Reported Measurement: 0 (less than 50% disease control)
